studySystem: mutant Aurora A kinase (Homo sapiens)
Sequence (O14965 1-403): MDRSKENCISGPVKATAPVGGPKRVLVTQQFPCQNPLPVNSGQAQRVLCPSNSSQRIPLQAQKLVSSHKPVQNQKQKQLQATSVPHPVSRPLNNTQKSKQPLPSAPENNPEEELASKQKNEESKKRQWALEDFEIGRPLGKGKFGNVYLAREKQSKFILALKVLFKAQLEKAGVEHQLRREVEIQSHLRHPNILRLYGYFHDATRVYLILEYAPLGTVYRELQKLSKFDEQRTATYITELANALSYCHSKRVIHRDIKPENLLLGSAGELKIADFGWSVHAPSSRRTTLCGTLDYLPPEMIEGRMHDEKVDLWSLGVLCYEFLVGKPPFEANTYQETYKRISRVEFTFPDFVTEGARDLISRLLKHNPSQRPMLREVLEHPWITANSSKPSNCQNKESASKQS
experimentalDetails: IC50 determination for inhibitors of Aurora A (ELISA, GST-Histone H3 substrate)
conditionNotes: 30 μM ATP, 40 minutes, read-out: IC50 Aurora A kinase inhibition
reportedProperty: IC50
A complete answer gives the number and then names the unit.

Consider the following illustrative entries.
[
  {
    "compound": "Cc1cc(Nc2nn(C(C)C)c(=O)c3cc(OCCN(C)C)ccc23)n[nH]1 [Example A-5]",
    "measValue": "22 nM"
  },
  {
    "compound": "Cc1cc(Nc2nn(C(C)C)c(=O)c3cc(OCCCS(=O)(=O)N4CCOCC4)ccc23)n[nH]1 [Example A-4]",
    "measValue": "10 nM"
  },
  {
    "compound": "Cc1cc(Nc2nn(C(C)C)c(=O)c3cc(COCCN4CCOCC4)ccc23)[nH]n1 [Example E-3]",
    "measValue": "16 nM"
  }
]

Next:
Request: What does the record list as IC50 for Cc1cc(Nc2nn(C(C)C)c(=O)c3cc(S(=O)(=O)CCS(C)(=O)=O)ccc23)n[nH]1 [Example C-2] ?
Response: 10 nM
